Recorded MIC by entry
# Tested on: Pseudomonas aeruginosa
# PROCEDURE DETAILS: Antibacterial activity against Pseudomonas aeruginosa MTCC 2642 after 24 hrs by serial dilution method
# Type: functional
# ASSAY CONDITIONS: MTCC 2642, 24 h

**Q:** Give Pseudomonas aeruginosa MIC for COc1ccccc1/C=C/C(=O)/C=C/C1=C(C)CCCC1(C)C
**A:** > 100 µg/mL

**Q:** Give Pseudomonas aeruginosa MIC for CC1=C(/C=C/C(=O)/C=C/c2ccccc2Br)C(C)(C)CCC1
**A:** > 100 µg/mL

**Q:** Give Pseudomonas aeruginosa MIC for CC1=C(/C=C/C(=O)/C=C/c2ccoc2)C(C)(C)CCC1
**A:** > 100 µg/mL
